molecular target: furin, P09958; assay: furin cleavage Z-score vs untreated control; higher = more cleavage, active = 3.5 or more, inactive = 1 or less, 8 variable residues between constant flanks; details: 7.5 min;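 also: purified furin at 1:10 enzyme:substrate in 50 mM HEPES pH 7.5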
Sequence (P09958 whole entry): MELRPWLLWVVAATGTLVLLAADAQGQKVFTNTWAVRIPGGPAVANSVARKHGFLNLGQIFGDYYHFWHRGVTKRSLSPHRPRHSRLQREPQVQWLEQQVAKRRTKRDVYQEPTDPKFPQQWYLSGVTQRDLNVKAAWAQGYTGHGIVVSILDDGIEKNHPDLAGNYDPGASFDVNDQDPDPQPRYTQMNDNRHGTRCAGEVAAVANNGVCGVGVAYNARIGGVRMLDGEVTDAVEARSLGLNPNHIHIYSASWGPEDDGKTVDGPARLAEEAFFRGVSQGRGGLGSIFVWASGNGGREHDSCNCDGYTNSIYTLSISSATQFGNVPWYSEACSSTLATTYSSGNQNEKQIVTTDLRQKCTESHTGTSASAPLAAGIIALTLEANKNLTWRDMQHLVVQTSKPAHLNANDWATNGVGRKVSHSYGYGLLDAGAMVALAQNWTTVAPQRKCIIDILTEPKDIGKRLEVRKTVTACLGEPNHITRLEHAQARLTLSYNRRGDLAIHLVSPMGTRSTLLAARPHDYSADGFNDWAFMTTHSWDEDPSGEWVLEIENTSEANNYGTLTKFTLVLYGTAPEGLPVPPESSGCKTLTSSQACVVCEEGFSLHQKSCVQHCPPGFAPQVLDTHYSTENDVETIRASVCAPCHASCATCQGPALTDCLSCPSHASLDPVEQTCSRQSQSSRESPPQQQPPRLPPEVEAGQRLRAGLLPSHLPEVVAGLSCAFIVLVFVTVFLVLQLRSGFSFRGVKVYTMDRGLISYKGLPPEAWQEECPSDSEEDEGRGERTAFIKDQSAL
The list shows a part of the results. The true hit rate is not given.
quantity_name: furin cleavage Z-score

biosequence	number
CARPEKSVNKAGNASASA [FS-1759]	-1.61
CAQRRRARRGAGNASASA [FS-850]	2.4
CAEPTTPCSGAGNASASA [HC1979]	-1.55
CAFTAAVTSPAGNASASA [HC1057]	-0.794
CAEVVTSTWNAGNASASA [HC2261]	-0.954
CAEPHRARRGAGNASASA [FS-1451]	5.81
CARTARAVSPAGNASASA [FS-2611]	5.89
